Source: patent US20220380473A1

ASSAYED SYSTEM: T1, association of GAL3 and TIM3 (Homo sapiens, UniProt P17931)
T1 construct: full-length human Galectin-3 protein (Acro Biosystems, GA3-H5129); linker-spaced 6-histidine tag; purchased Acro Biosystems GA3-H5129 (Gal3); TM3-H5229 (TIM-3)
T1 sequence (P17931 2-250 limits assumed): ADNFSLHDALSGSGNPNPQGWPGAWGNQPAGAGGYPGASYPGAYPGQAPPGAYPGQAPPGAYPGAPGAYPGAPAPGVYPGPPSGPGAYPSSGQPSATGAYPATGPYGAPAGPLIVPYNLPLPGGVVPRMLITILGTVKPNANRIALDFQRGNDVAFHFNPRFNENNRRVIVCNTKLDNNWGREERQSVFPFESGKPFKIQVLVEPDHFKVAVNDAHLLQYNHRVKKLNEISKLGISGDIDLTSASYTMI
RUN DESCRIPTION: GAL3-TIM3 blocking ELISA (Examples 24, 27)
Type: binding
ASSAY SETUP: 3 ug/mL antibody
MEASUREMENT NAME: GAL3-TIM3 Blocking @ 3 ug/mL (%)
Hi! Could you send only the number? It should be in %, unit omitted.

[[record]]
molecule = "846.1F5: murine anti-Gal3 antibody (antibody, V domains shown) VH: QIQLVQSGPELKKPGETVKISCKASGYTFTNYGMNWVKQAPGKGLKWMGWINTYTGEPSYADDFKGRFAFSLETSASTAYLQINNLKNEDMATYFCARWGGYDGDYYAMDYWGQGTSVTVSS VL: NIMMTQSPSSLAVSAGEKVTMSCKSSQSVLYSSNQKNYLAWYQQKPGQSPKLLIYWASTRESGVPDRFTGSGSGTDFTLTISSVQPEDLAVYYCHQYLSSLTFGAGTKLELK"
measurement_name = "GAL3-TIM3 Blocking @ 3 ug/mL"
unit_abbrev = "%"
quantitative_result = 90


Item: IMT001: anti-Gal3 monoclonal antibody (Immutics); printed as mIMT001 (IMT001), murine (antibody, V domains shown) VH: QIQLVQSGPELKKPGETVKISCKASGYTFTNYGMNWVKQAPGKGLKWMGWINTNTGEPTYVEEFKGRFAFSLETSASTAYLQINNLKNEDTATYFCAPYDNFFAYWGQGTLVTVSA VL: DIVITQDELSNPVTSGESVSISCRSSKSLLYKDGKTYLNWFLQRPGQSPQLLIYLMSTHASGVSDRFSGSGSGTDFTLEISRVKAEDVGVYYCQQLVDYPLTFGAGTKLELK | GAL3-TIM3 Blocking @ 3 ug/mL: 80
